B1: Twister Ribozyme (parent)
chain: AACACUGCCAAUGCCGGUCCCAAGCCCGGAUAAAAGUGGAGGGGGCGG

variants of: B1; test: self-cleavage, relative activity (ratio to wild type); higher = more cleavage; co-transcriptional
test readout: self-cleavage
Numbers only.

- AACACUGCCAAUGCCGGUCGCAAGCCCGGAUGAAAGUGGAGGGGGCGG [C20G A32G]: 0.0903
- AACACUGCCAAUGCCGGUCCCAAGCCCGGAUGAAAGUGGAAGGGGCGG [A32G G41A]: 0.518
- AACAAUGCCAAUGCCGGUCCCAAGCCCGGAUAAAAGUGGCGGGGGCGG [C5A A40C]: 0.129

Batch: self-cleavage for all items listed.
1. AACACUGCCAAUGCCGGUCCCAAACCCGGAUAAAAGUGGAGGGGGCAG [G24A G47A]
2. AACACUGCCAAUGCCGGUCACAAUCCCGGAUAAAAGUGGAGGGGGCGG [C20A G24U]
3. AACACUGCCAAUGCCGGUCCCAAGCCCGGACAAAAGUGGAAGGGGCGG [U31C G41A]

## Output
1. 0.096
2. 0.0913
3. 0.539
